Items are presented alongside their recorded normalized growth.
Assay method text: chemical genetic growth profiling, strain panel (AID 1159580);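 also: tested at 20 µM; growth read once vehicle control cultures reached saturation at 30 °C; 1 = growth at the plate median or of vehicle wells; lower values mean less growth of the strain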
Test settings: S. cerevisiae deletion strains, growth OD, locus YHR205W, strain SCH9, hits give low values
Hit rate of the full screen: of about 5,500 compounds, about 2,000 (36%) were called active. Another 18% or so got no clear call; they are omitted. Some of the results follow.
Measured attribute: normalized growth

>  <Molecule>
O=C(OCCNc1ccc([N+](=O)[O-])cn1)c1ccc([N+](=O)[O-])o1

>  <Reported result>
0.663

$$$$
>  <Molecule>
C=CCC1C(=O)N(S(=O)(=O)c2ccc(Cl)cc2)N=C1CCC (stereo not given)

>  <Reported result>
0.972

$$$$
>  <Molecule>
O=[N+]([O-])c1ccc(Sc2ccccc2)c([N+](=O)[O-])c1

>  <Reported result>
0.522

$$$$
>  <Molecule>
N/C(=N/OCc1c(F)cccc1Cl)c1ccc(Cl)cc1

>  <Reported result>
0.765

$$$$
>  <Molecule>
COC(=O)c1sccc1S(=O)(=O)Nc1cc(C(F)(F)F)cc(C(F)(F)F)c1

>  <Reported result>
0.947

$$$$
>  <Molecule>
COc1cc(C2SCCS2)cc(Br)c1OC(=O)NC(=O)c1c(Cl)cccc1Cl

>  <Reported result>
0.987

$$$$
>  <Molecule>
O=C(Nc1ccc(F)cc1)c1cc(Br)ccc1O

>  <Reported result>
0.615

$$$$
>  <Molecule>
O=[N+]([O-])c1ccc(Sc2ccccc2)cc1O

>  <Reported result>
0.864

$$$$
>  <Molecule>
O=[N+]([O-])c1ccc(NCc2ccc(Cl)c(Cl)c2)nc1

>  <Reported result>
0.81

$$$$
>  <Molecule>
S=C(NCCc1csc2ccccc12)Nc1ccc(Cl)cc1

>  <Reported result>
0.566

$$$$
>  <Molecule>
COC(=O)c1cccc(NS(=O)(=O)c2ccc(Cl)c(Cl)c2)c1

>  <Reported result>
0.904

$$$$
>  <Molecule>
CC(C)(C)c1ccc(-c2cc(NC(=O)c3ccc(Cl)cc3)n[nH]2)cc1

>  <Reported result>
0.96

$$$$
>  <Molecule>
O=C(Nc1cc(Cl)cc(Cl)c1)c1cc(Cl)ccc1O

>  <Reported result>
0.504

$$$$
>  <Molecule>
CC(=O)c1ccc(Sc2ccccc2)c([N+](=O)[O-])c1

>  <Reported result>
0.773

$$$$
>  <Molecule>
O=C(Nc1cc(Cl)cc(Cl)c1)c1cc(Br)ccc1O

>  <Reported result>
0.656

$$$$
